- TARGET_ENTITY: Bromodomain-containing protein 4 (Homo sapiens)
- TEST_METHOD_NOTES: Inhibition of BRD4 bromodomain 1 (unknown origin) by TR-FRET assay
PROPERTY_NAME: pIC50
# pIC50 is unitless: minus log10 of the molar concentration; print number only

Nc1nnc(-c2ccccc2O)cc1-c1ccccc1    4.57

Need pIC50 of CC(=O)N1CCN(c2cc(-c3ccccc3O)nnc2N)C[C@H]1C , thanks.
4.47

----------
- TARGET_ENTITY: SWI/SNF-related matrix-associated actin-dependent regulator of chromatin subfamily A member 2 (Homo sapiens, UniProt P51531)
- Sequence (P51531 whole entry): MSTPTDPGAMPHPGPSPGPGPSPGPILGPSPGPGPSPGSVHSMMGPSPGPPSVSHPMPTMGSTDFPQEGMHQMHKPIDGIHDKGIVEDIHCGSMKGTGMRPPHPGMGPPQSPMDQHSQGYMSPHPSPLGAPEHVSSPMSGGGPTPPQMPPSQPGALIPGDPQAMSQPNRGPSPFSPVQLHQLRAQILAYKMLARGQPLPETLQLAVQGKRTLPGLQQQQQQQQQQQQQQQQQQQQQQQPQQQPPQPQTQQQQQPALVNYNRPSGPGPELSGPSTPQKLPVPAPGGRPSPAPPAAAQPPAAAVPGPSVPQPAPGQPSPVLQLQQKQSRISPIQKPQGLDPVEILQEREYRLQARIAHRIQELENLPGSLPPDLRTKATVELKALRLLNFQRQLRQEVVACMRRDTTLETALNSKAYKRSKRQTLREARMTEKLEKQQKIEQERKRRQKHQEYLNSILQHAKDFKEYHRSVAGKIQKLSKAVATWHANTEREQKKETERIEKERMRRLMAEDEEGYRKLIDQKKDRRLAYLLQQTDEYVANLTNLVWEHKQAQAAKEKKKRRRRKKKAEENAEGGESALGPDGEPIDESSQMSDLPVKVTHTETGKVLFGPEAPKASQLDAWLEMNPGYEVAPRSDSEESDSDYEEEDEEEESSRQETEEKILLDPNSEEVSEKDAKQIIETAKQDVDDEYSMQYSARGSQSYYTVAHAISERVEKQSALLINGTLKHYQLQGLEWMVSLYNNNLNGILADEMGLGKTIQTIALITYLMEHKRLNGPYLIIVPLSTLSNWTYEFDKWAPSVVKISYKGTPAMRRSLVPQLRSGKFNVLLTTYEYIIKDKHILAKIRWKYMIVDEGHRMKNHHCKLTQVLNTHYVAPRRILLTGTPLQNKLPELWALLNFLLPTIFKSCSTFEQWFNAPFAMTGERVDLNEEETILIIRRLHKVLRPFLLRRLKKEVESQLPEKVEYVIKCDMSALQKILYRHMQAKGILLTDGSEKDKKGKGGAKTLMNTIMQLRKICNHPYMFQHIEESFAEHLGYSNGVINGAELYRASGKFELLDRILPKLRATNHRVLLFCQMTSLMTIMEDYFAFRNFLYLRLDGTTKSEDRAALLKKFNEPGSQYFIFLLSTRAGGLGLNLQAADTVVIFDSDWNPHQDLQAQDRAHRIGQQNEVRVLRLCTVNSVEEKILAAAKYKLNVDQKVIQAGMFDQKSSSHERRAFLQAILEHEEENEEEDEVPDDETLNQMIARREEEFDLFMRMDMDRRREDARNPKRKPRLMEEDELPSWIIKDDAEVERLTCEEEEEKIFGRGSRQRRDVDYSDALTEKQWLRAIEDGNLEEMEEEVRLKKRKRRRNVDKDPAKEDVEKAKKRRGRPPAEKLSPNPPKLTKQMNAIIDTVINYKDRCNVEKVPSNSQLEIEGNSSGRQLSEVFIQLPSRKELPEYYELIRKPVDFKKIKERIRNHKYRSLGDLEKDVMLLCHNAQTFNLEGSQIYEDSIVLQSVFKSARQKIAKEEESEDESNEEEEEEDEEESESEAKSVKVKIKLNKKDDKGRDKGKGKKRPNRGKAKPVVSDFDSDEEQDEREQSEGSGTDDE
PROPERTY_NAME: pIC50
Scale: negative log10 of molar concentration, which is what pIC50 denotes.

Value lookup for pIC50; key = Nc1nnc2c([nH]c3ccccc32)c1-c1ccccc1
5.37

----------
- TEST_METHOD_NOTES: Kinetic solubility of compound
- Assay type: physicochemical
- MEASUREMENT_PARAMETERS: read-out: Kinetic_solubility
PROPERTY_NAME: solubility kinetic (µM)
Respond with the bare value in µM.

Nc1nnc(-c2ccccc2O)cc1-c1ccccc1    11

# input for lookup
Which measured solubility kinetic value corresponds to CC(=O)N1CCN(c2cc(-c3ccccc3O)nnc2N)C[C@H]1C ?
120

----------
- TEST_METHOD_NOTES: Cmax in CD-1 mouse at 1 mg/kg, po
- Format: ADME, organism-based
- Design: dose 1 mg/kg, route po
- MEASUREMENT_PARAMETERS: in vivo
PROPERTY_NAME: Cmax (nM)
Quick note: give the figure in nM, leave out the unit.

Entry under review: CC(=O)N1CCN(c2cc(-c3ccccc3O)nnc2N)C[C@H]1C . Reported Cmax?
1000

Reference for the values: ChEMBL document CHEMBL5137085
